Origin of measurements: patent US20260041679A1

assay: Pharmacokinetics in subjects with moderate hepatic impairment vs normal hepatic function (Example 5); type: in vivo, human; conditions: human, plasma, oral, 10 mg, normal hepatic function; single 10 mg; read-out: AUC(0-inf), geometric mean (% CV)
property_measured: AUC(0-inf) (ng·h/mL)
Give the number; ng·h/mL is assumed, so skip it.

Prompt: Entry CCC(=O)N[C@@H]1CCCc2c(-c3ccc4c(c3)CCC(=O)N4C)cncc21 [baxdrostat] : reported AUC(0-inf) = ?
Response: 3780

###

test: Pharmacokinetics in subjects with moderate hepatic impairment vs normal hepatic function (Example 5); format: in vivo, human; settings: human, plasma, oral, 10 mg, normal hepatic function (n = 10); single 10 mg; read-out: Cmax, geometric mean (% CV)
property_measured: Cmax (ng/mL)
Response body: numeric value in ng/mL, unit text excluded.

Prompt: Can you share its Cmax? I mean this molecule: CCC(=O)N[C@@H]1CCCc2c(-c3ccc4c(c3)CCC(=O)N4C)cncc21
Response: 104
